Tested on: CD8+ T cells
Protocol Summary: In vitro T-cell priming assay (aAPCs loaded with peptide/MHC and anti-CD28, multimer staining readout)
Assay type: cell-based, human
Measurement Setup: CD8+ T cells of healthy donors, three stimulation cycles with peptide/MHC and anti-CD28 coated beads
Experimental Readout: Wells (in vitro immunogenicity of HLA class I peptides)

Guide cases for Wells (in vitro immunogenicity of HLA class I peptides), answers given:
[[record]]
substance = "301 (AYKPGALTF; listed as Homo sapiens) [compound 301]"
measurement = "+ (<20% = +)"

[[record]]
substance = "300 (AYVLRLETL; listed as Homo sapiens) [compound 300]"
measurement = "+ (<20% = +)"

[[record]]
substance = "291 (KLDETGNSL; listed as Homo sapiens) [compound 291]"
measurement = "+ (<20% = +)"

[[record]]
substance = "298 (RYLEGTSCI; listed as Homo sapiens) [compound 298]"
measurement = "+ (<20% = +)"

[[record]]
substance = "296 (TYVDSSHTI; listed as Homo sapiens) [compound 296]"
measurement = "+ (<20% = +)"

[[record]]
substance = "292 (GMMTAILGV; listed as Homo sapiens) [compound 292]"
measurement = "+ (<20% = +)"


// lookup Wells (in vitro immunogenicity of HLA class I peptides) for 293 (FLVDGSWSI; listed as Homo sapiens) [compound 293] + (<20% = +)
